procedure-details: Viability / viable cell recovery of cultured murine cells (trypan blue dye exclusion)
Type: cell-based
measurement-parameters: mouse, trypan blue exclusion
Description: Murine cytotoxic T-lymphocytes were generated in mixed leukocyte cultures by known methods. […] Percent viability was calculated according to the formula: [formula] […] Moreover, cell viability was generally assessed only from control cultures; the resultant mean values being used to prepare desired viable effector cell concentrations from all cultures. […] […] | ^b The viability of cells from each culture was determined by trypan
property: viability at 0.01 µM (%)
Lab book: enter the figure in %, no units written.

Entry under review: C=C1/C(=C\C=C2/CCC[C@]3(C)[C@@H]([C@H](C)/C=C/[C@H](C)C(C)(C)O)CC[C@@H]23)C[C@@H](O)C[C@@H]1O [1α,25-(OH)2 --D2, 1α,25-Dihydroxyergocalciferol] . Reported viability at 0.01 µM?
57
